test: Lipophilicity of the compound assessed as capacity factor by HPLC analysis; format: physicochemical
The label is y for K below 6 and n for K equal to or exceeding 6.

Query: Bench note: check whether COc1cc(CNC(=O)/C=C/c2ccc3c(c2)[C@@H](C(=O)NCc2cc(OC)c(OC)c(OC)c2)[C@H](c2ccc(O)cc2)O3)cc(OC)c1OC (racemic) shows K below 6
Reply: n

Query: Bench note: check whether COc1cc([C@@H]2Oc3c(OC)cc(/C=C/C(=O)NCc4cc(OC)c(OC)c(OC)c4)cc3[C@H]2C(=O)NCc2cc(OC)c(OC)c(OC)c2)ccc1O (racemic) shows K below 6
Reply: n

Query: Bench note: check whether O=C(/C=C/c1ccc2c(c1)[C@@H](C(=O)NCCc1ccc(O)cc1)[C@H](c1ccc(O)cc1)O2)NCCc1ccc(O)cc1 (racemic) shows K below 6
Reply: y

Query: Bench note: check whether COc1cc(CNC(=O)/C=C/c2cc(O)c3c(c2)[C@@H](C(=O)NCc2cc(OC)c(OC)c(OC)c2)[C@H](c2ccc(O)c(O)c2)O3)cc(OC)c1OC (racemic) shows K below 6
Reply: y

Query: Bench note: check whether Cc1ccc(CNC(=O)/C=C/c2ccc3c(c2)[C@@H](C(=O)NCc2ccc(C)cc2)[C@H](c2ccc(O)cc2)O3)cc1 (racemic) shows K below 6
Reply: n

Query: Bench note: check whether Cc1ccc(CNC(=O)/C=C/c2cc(O)c3c(c2)[C@@H](C(=O)NCc2ccc(C)cc2)[C@H](c2ccc(O)c(O)c2)O3)cc1 (racemic) shows K below 6
Reply: n

Query: Bench note: check whether COc1cc([C@@H]2Oc3c(OC)cc(/C=C/C(=O)NCc4ccc(C)cc4)cc3[C@H]2C(=O)NCc2ccc(C)cc2)ccc1O (racemic) shows K below 6
Reply: n

Query: Bench note: check whether COc1cc([C@@H]2Oc3c(OC)cc(/C=C/C(=O)NCCc4ccc(O)cc4)cc3[C@H]2C(=O)NCCc2ccc(O)cc2)ccc1O (racemic) [GROSSAMIDE] shows K below 6
Reply: y

Query: Bench note: check whether O=C(/C=C/c1cc(O)c2c(c1)[C@@H](C(=O)NCCc1ccc(O)cc1)[C@H](c1ccc(O)c(O)c1)O2)NCCc1ccc(O)cc1 (racemic) shows K below 6
Reply: y
